Hey, just so you know, these numbers are from paper PMC11551953.

Molecular target: T1, wtBSA(-17e), bovine serum albumin (bovine, UniProt P02769 25-607)
T1 construct: bovine serum albumin, wild type; also called wtBSA (−18e); BSA(-18e); source: bought: Sigma-Aldrich; further purified by repeated concentration on an Amicon 10 kD cutoff filter
T1 sequence (P02769 25-607): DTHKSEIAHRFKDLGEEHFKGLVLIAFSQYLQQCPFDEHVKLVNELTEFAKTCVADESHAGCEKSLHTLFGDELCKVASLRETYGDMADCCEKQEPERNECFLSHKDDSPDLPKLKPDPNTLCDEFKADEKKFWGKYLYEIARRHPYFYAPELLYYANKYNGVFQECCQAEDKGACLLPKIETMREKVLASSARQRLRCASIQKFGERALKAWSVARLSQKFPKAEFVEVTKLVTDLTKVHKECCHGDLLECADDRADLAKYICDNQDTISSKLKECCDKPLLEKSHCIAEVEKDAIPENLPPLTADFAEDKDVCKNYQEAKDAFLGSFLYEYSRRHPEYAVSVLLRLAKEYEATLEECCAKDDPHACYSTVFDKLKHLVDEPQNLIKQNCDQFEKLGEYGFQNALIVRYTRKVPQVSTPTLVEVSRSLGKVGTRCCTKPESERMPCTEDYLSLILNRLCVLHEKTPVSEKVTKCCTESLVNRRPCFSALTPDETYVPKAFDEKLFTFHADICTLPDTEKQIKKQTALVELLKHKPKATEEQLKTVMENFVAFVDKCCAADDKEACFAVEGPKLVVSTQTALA
Assay: other fluorescence titration; BSA titrated to 1 uM probe (His-tag removed) in a 96-well plate; excitation ratio 405 nm/488 nm at 520 nm emission; 10 mM NaPi, 100 mM KCl, pH 7.4, room temperature; ratio against BSA concentration fitted to a Hill function (k = KD, n = Hill coefficient); errors are errors in the fits
Conditions: both partners purified
pKd: −log10 of the molar value. Where no end group is shown, it is not given here.
PROPERTY_MEASURED: pKd

>  <BINDER>
KLKKLKKLKKLK (other, also: fused to cpGFP reporter, not in chain) [GFP(KLK)4]

>  <PROPERTY_MEASURED>
pKd

>  <OBSERVED_MEASUREMENT>
3.66

$$$$
>  <BINDER>
KKKKKKKKKKKK (other, also: fused to cpGFP reporter, not in chain) [GFP(KKK)4]

>  <PROPERTY_MEASURED>
pKd

>  <OBSERVED_MEASUREMENT>
3.77

$$$$
>  <BINDER>
KLLKLLKLLKLL (other, also: fused to cpGFP reporter, not in chain) [GFP(KLL)4]

>  <PROPERTY_MEASURED>
pKd

>  <OBSERVED_MEASUREMENT>
3.96

$$$$
